B1: Chromodomain-helicase-DNA-binding protein 4, residues 444 to 496; numbered along this chain, Q14839 (parent)
chain: EDDHHMEFCRVCKDGGELLCCDTCPSSYHIHCLNPPLPEIPNGEWLCPRCTCP

- Variants of: B1
- experimentalProtocol: abundance fitness (aPCA) (normalised: wild type 0, dead -1); higher = more abundant; growth selection in yeast, the domain comes from the species named
- conditionNotes: Homo sapiens

[
  {
    "variantDescription": "I30K",
    "abundance fitness": -0.047
  },
  {
    "variantDescription": "C21D",
    "abundance fitness": -0.875
  },
  {
    "variantDescription": "H29F",
    "abundance fitness": -0.918
  },
  {
    "variantDescription": "I40C",
    "abundance fitness": 0.019
  },
  {
    "variantDescription": "D22L",
    "abundance fitness": -0.067
  },
  {
    "variantDescription": "N34F",
    "abundance fitness": -0.158
  },
  {
    "variantDescription": "C47R",
    "abundance fitness": -0.664
  },
  {
    "variantDescription": "C20H",
    "abundance fitness": 0.168
  },
  {
    "variantDescription": "P48T",
    "abundance fitness": -0.27
  }
]
